# TARGET OR TEST SYSTEM: Homotetrameric CNGA2 channels (Rattus norvegicus)
# Construct: expressed in transfected cells; host or cells: Xenopus laevis oocytes injected with CNGA2 cRNA
# Sequence (Q00195 whole entry): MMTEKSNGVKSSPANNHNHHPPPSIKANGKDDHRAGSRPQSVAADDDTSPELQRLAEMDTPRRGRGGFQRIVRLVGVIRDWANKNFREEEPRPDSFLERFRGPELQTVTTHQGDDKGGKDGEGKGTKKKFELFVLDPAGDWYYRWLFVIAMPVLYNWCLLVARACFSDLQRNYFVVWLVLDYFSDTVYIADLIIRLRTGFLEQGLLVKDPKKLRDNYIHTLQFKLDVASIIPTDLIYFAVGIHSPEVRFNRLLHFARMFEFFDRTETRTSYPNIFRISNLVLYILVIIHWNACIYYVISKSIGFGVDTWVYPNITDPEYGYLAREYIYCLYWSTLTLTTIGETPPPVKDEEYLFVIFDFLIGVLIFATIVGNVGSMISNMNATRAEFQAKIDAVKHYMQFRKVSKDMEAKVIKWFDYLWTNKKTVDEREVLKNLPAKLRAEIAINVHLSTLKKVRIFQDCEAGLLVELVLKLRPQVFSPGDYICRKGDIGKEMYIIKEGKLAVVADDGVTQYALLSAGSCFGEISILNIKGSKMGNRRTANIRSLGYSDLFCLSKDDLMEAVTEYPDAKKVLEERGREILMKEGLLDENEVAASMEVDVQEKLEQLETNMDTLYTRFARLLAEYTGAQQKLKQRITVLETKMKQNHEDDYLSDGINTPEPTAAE
# ASSAY REMARKS: Patch-clamp activation of homotetrameric CNGA2 channels, inside-out patches of Xenopus oocytes
# Format: biochemical
# EXPERIMENTAL CONTEXT: inside-out patches
Hi, to clarify the labels: Satisfied covers H a (Hill coefficient of activation) from 3 upward, Not satisfied covers anything below 3.

COMPOUND	TARGET OR TEST SYSTEM	DISCRETE LABEL
CC1(C)C2=C3C=C4C5=[N+](CCC4OC3CCN2c2ccc(CC(=O)NCCCCCc3ccc(Sc4nc6c(=O)[nH]c(N)nc6n4[C@@H]4O[C@@H]6COP(=O)(O)O[C@H]6[C@H]4O)cc3)cc21)c1ccc(S(=O)(=O)[O-])cc1C5(C)C (stereo partly drawn)	Homotetrameric CNGA2 channels (Rattus norvegicus)	Satisfied
NCCCCCc1ccc(-c2nc3c(N)ncnc3n2[C@@H]2O[C@@H]3COP(=O)(O)O[C@H]3[C@H]2O)cc1	Homotetrameric CNGA2 channels (Rattus norvegicus)	Not satisfied
NCCCCCc1ccc(Sc2nc3c(=O)[nH]c(N)nc3n2[C@@H]2O[C@@H]3COP(=O)(O)O[C@H]3[C@H]2O)cc1	Homotetrameric CNGA2 channels (Rattus norvegicus)	Not satisfied
NCCCCCc1ccc(Sc2nc3c(N)ncnc3n2[C@@H]2O[C@@H]3COP(=O)(O)O[C@H]3[C@H]2O)cc1	Homotetrameric CNGA2 channels (Rattus norvegicus)	Not satisfied
Nc1nc2c(ncn2[C@@H]2O[C@@H]3COP(=O)(O)O[C@H]3[C@H]2O)c(=O)[nH]1 [cGMP, reference compound]	Homotetrameric CNGA2 channels (Rattus norvegicus)	Not satisfied
NCCCCCc1ccc(-c2nc3c(=O)[nH]c(N)nc3n2[C@@H]2O[C@@H]3COP(=O)(O)O[C@H]3[C@H]2O)cc1	Homotetrameric CNGA2 channels (Rattus norvegicus)	Not satisfied

* * *

The entries below come with measured H a (Hill coefficient of activation) values attached.
# TARGET OR TEST SYSTEM: Heterotetrameric CNGA2:A4:B1b channels (Rattus norvegicus, UniProt A0A8I5ZN27+Q00195+Q64359)
# Construct: expressed in transfected cells; host or cells: Xenopus laevis oocytes injected with cRNA (CNGA2:CNGA4:CNGB1b at 2:1:1)
# Sequence (Q00195 whole entry): as above
# Sequence (Q64359 whole entry): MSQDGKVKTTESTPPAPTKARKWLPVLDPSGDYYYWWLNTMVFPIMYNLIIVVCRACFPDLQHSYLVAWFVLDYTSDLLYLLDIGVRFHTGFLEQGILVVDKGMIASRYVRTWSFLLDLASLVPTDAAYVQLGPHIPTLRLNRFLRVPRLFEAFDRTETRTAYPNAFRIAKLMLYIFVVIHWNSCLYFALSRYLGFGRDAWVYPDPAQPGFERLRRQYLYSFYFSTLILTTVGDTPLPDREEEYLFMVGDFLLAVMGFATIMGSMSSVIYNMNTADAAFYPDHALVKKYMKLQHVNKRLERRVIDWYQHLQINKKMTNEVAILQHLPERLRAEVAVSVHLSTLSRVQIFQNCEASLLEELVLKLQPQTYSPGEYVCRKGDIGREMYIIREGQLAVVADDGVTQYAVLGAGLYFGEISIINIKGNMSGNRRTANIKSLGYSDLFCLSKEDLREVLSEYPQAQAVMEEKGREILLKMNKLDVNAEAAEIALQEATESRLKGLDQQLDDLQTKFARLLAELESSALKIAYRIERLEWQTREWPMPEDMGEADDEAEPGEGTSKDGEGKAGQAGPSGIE
# Sequence (A0A8I5ZN27 1-858 isoform A0A8I5ZN27-2): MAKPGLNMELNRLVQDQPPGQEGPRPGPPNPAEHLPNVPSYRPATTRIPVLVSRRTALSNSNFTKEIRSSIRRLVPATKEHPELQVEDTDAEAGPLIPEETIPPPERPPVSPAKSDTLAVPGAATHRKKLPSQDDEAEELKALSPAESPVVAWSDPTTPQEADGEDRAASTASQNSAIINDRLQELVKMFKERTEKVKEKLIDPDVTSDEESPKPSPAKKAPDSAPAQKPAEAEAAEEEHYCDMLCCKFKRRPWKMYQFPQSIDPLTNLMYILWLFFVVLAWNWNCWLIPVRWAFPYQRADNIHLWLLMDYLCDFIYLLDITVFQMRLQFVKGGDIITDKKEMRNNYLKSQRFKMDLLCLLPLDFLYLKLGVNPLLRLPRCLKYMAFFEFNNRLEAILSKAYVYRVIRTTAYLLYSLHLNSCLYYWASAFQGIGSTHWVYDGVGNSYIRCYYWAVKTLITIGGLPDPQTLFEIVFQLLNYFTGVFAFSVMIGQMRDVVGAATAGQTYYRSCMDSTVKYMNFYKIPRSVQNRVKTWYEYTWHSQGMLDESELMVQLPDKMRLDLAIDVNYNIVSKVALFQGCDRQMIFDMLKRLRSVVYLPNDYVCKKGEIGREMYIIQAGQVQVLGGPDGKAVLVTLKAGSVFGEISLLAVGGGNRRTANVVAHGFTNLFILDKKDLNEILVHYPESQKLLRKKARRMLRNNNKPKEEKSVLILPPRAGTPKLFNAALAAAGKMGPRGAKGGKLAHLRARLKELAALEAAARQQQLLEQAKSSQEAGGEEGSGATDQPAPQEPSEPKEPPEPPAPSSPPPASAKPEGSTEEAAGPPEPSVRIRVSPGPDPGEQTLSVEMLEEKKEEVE
# ASSAY REMARKS: Patch-clamp activation of heterotetrameric olfactory CNGA2:A4:B1b channels, inside-out patches of Xenopus oocytes
# Assay type: biochemical
# EXPERIMENTAL CONTEXT: inside-out patches, +10 mV
# Experimental: First, the effect of the compounds on olfactory CNG channels with natural composition was tested. […] To determine the potency of the ligands, full concentration‐activation relationships were generated. […] Electrophysiology: Macroscopic currents were recorded in inside‐out patches of the oocytes expressing hundreds to several thousand of the desired channels by using the patch‐clamp technique. […]
ENDPOINT: H a (Hill coefficient of activation)

MOLECULE	RECORDED RESULT
CC1(C)C2=C3C=C4C5=[N+](CCC4OC3CCN2c2ccc(CC(=O)NCCCCCc3ccc(Sc4nc6c(N)ncnc6n4[C@@H]4O[C@@H]6COP(=O)(O)O[C@H]6[C@H]4O)cc3)cc21)c1ccc(S(=O)(=O)[O-])cc1C5(C)C (some centres unmarked)	2.26
NCCCCCc1ccc(-c2nc3c(N)ncnc3n2[C@@H]2O[C@@H]3COP(=O)(O)O[C@H]3[C@H]2O)cc1	2.23
NCCCCCc1ccc(Sc2nc3c(N)ncnc3n2[C@@H]2O[C@@H]3COP(=O)(O)O[C@H]3[C@H]2O)cc1	2.25
Nc1ncnc2c1ncn2[C@@H]1O[C@@H]2COP(=O)(O)O[C@H]2[C@H]1O [cAMP, reference compound]	2.08
NCCCCCc1ccc(-c2nc3c(=O)[nH]c(N)nc3n2[C@@H]2O[C@@H]3COP(=O)(O)O[C@H]3[C@H]2O)cc1	1.74
NCCCCCc1ccc(Sc2nc3c(=O)[nH]c(N)nc3n2[C@@H]2O[C@@H]3COP(=O)(O)O[C@H]3[C@H]2O)cc1	1.55
CC1(C)C2=C3C=C4C5=[N+](CCC4OC3CCN2c2ccc(CC(=O)NCCCCCc3ccc(Sc4nc6c(=O)[nH]c(N)nc6n4[C@@H]4O[C@@H]6COP(=O)(O)O[C@H]6[C@H]4O)cc3)cc21)c1ccc(S(=O)(=O)[O-])cc1C5(C)C (some centres unmarked)	2.32
Nc1nc2c(ncn2[C@@H]2O[C@@H]3COP(=O)(O)O[C@H]3[C@H]2O)c(=O)[nH]1 [cGMP, reference compound]	2.11
